For each of the compounds below, state its pKi.
molecular target: human NEP (Homo sapiens, UniProt P08473); construct: 1182-ZN; assay: In vitro enzyme inhibition assay at human NEP (Assay 1); settings: recombinant enzyme, fluorogenic peptide substrate, 37° C.
Sequence (P08473 whole entry): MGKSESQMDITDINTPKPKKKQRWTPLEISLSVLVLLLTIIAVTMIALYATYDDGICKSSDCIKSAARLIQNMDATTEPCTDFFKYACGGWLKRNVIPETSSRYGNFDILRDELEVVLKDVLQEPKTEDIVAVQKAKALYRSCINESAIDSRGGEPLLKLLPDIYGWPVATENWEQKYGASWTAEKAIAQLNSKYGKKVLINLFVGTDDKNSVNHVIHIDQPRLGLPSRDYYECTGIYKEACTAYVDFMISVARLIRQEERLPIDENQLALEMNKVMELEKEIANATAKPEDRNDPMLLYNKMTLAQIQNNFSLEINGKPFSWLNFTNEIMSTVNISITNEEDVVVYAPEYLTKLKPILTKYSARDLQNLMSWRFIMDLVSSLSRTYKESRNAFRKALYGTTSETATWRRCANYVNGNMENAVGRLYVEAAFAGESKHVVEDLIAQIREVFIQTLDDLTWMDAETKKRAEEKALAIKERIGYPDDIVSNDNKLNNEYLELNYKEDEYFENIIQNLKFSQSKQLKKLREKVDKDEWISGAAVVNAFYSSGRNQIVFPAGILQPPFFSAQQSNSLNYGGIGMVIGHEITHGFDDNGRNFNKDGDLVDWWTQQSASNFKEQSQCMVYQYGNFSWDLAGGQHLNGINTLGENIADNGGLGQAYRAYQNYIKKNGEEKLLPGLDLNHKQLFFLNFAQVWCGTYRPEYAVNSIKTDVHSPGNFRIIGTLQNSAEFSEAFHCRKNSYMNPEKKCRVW
pKi: −log10 of the molar value.

// sample O=C(NN(Cc1ccc(-c2cc(F)ccc2O)cc1)C[C@H](O)C(=O)O)c1cc(O)no1 [Example 8-5] , its pKi was 8.00 to 8.90

// sample O=C(NN(Cc1ccc(-c2cccc(Cl)c2)cc1)C[C@@H](O)C(=O)O)c1cc(-c2ccccc2F)no1 [Example 4-31] , its pKi was 8.00 to 8.90

// sample O=C(NN(Cc1ccc(-c2cc(Cl)ccc2F)cc1)C[C@@H](O)C(=O)O)c1cc(-c2ccccn2)n[nH]1 [Example 8-36] , its pKi was ≥ 9.00

// sample COc1ccccc1-c1ccc(CN(C[C@@H](O)C(=O)O)NC(=O)c2cc(O)no2)cc1 [Example 5-5] , its pKi was 8.00 to 8.90

====

For each of the molecules below, state its pKi.
target: human NEP (Homo sapiens, UniProt P08473); construct: 1182-ZN; experiment: In vitro enzyme inhibition assay at human NEP (Assay 1); details: recombinant enzyme, fluorogenic peptide substrate, 37° C.
pKi: −log10 of the molar value.

// sample `O=C(NN(Cc1ccc(-c2cccc(Cl)c2F)cc1)C[C@@H](O)C(=O)O)c1cc(O)no1` , its pKi was 8.00 to 8.90

// sample `NS(=O)(=O)CCNC(=O)c1cc(C(=O)NN(Cc2ccc(-c3ccccc3)cc2)C[C@@H](O)C(=O)O)[nH]n1` , its pKi was 8.00 to 8.90

// sample `O=C(O)c1cc(C(=O)NN(Cc2ccc(-c3ccccc3)cc2)C[C@H](O)C(=O)O)[nH]n1` , its pKi was 8.00 to 8.90

// sample `CN(C)C(=O)c1cc(C(=O)NN(Cc2ccc(-c3ccccc3)cc2)C[C@@H](O)C(=O)O)[nH]n1` , its pKi was 8.00 to 8.90

// sample `O=C(NN(Cc1ccc(-c2cc(Cl)ccc2F)cc1)C[C@@H](O)C(=O)O)c1n[nH]c(Cl)n1` , its pKi was ≥ 9.00

// sample `COc1ccccc1-c1cc(C(=O)NN(Cc2ccc(-c3cc(Cl)ccc3F)cc2)C[C@@H](O)C(=O)O)[nH]n1` , its pKi was ≥ 9.00

// sample `O=C(NN(Cc1ccc(-c2cc(Cl)cc(Cl)c2)cc1)C[C@@H](O)C(=O)O)c1cn(O)nn1` , its pKi was 7.00 to 7.90

// sample `O=C(NN(Cc1ccc(-c2ccccc2)cc1)C[C@@H](O)C(=O)O)c1cc(F)c2[nH]nnc2c1` , its pKi was 6.00 to 6.90

// sample `O=C(NN(Cc1ccc(-c2cccc(C(F)(F)F)c2)cc1)C[C@@H](O)C(=O)O)c1cc(O)no1` , its pKi was 7.00 to 7.90

// sample `O=C(O)c1cc(C(=O)NN(Cc2ccc(-c3cccc(Cl)c3)cc2)C[C@@H](O)C(=O)O)ncn1` , its pKi was ≥ 9.00

// sample `O=C(NN(Cc1ccc(-c2ccccc2O)cc1)C[C@@H](O)C(=O)O)c1cc(O)no1` , its pKi was 8.00 to 8.90

// sample `O=C(NN(Cc1ccc(-c2cccc(Cl)c2)cc1)C[C@@H](O)C(=O)O)c1ccnc(O)n1` , its pKi was 7.00 to 7.90

// sample `O=C(NN(Cc1ccc(-c2cc(O)cc(Cl)c2)cc1)C[C@H](O)C(=O)O)c1cc(O)no1` , its pKi was ≥ 9.00

// sample `Cc1ccc(Cl)cc1-c1ccc(CN(C[C@@H](O)C(=O)O)NC(=O)c2cn(O)nn2)cc1` , its pKi was ≥ 9.00

// sample `CC(C)CN(C)C(=O)c1cc(C(=O)NN(Cc2ccc(-c3cccc(Cl)c3)cc2)C[C@@H](O)C(=O)O)[nH]n1` , its pKi was ≥ 9.00

// sample `COc1ccccc1-c1cc(C(=O)NN(Cc2ccc(-c3cccc(Cl)c3)cc2)C[C@@H](O)C(=O)O)[nH]n1` , its pKi was 8.00 to 8.90

// sample `O=C(O)c1cc(C(=O)NN(Cc2ccc(-c3cccc(Cl)c3)cc2)C[C@@H](O)C(=O)O)[nH]n1` , its pKi was ≥ 9.00

// sample `O=C(NN(Cc1ccc(-c2cc(Cl)cc(Cl)c2)cc1)C[C@@H](O)C(=O)O)c1cc(O)no1` , its pKi was ≥ 9.00

// sample `CC(=O)c1cc(C(=O)NN(Cc2ccc(-c3cccc(Cl)c3)cc2)C[C@@H](O)C(=O)O)[nH]n1` , its pKi was ≥ 9.00

// sample `O=C(NN(Cc1ccc(-c2cc(Cl)ccc2F)cc1)C[C@@H](O)C(=O)O)c1cc(C2CC2)n[nH]1` , its pKi was ≥ 9.00

// sample `O=C(NN(Cc1ccc(-c2cccc(Cl)c2)cc1)C[C@@H](O)C(=O)O)c1cc(-c2cccnc2)[nH]n1` , its pKi was 8.00 to 8.90

// sample `O=C(NN(Cc1ccc(-c2ccccc2)cc1)C[C@@H](O)C(=O)O)c1cc(-c2ccccc2)n[nH]1` , its pKi was 7.00 to 7.90

// sample `O=C(NN(Cc1ccc(-c2cccc(O)c2)cc1)C[C@H](O)C(=O)O)c1cc(O)no1` , its pKi was 8.00 to 8.90

// sample `CN(C)C(=O)c1cc(C(=O)NN(Cc2ccc(-c3cc(Cl)ccc3F)cc2)C[C@@H](O)C(=O)O)[nH]n1` , its pKi was ≥ 9.00

// sample `O=C(NN(Cc1ccc(-c2cc(F)cc(Cl)c2)cc1)C[C@H](O)C(=O)O)c1cc(O)no1` , its pKi was 8.00 to 8.90

====

target: human NEP (Homo sapiens, UniProt P08473); construct: 1182-ZN; test: In vitro enzyme inhibition assay at human NEP (Assay 1); settings: recombinant enzyme, fluorogenic peptide substrate, 37° C.
pKi: −log10 of the molar value.
OBSERVABLE: pKi

// sample `O=C(NN(Cc1ccc(-c2cc(F)cc(F)c2)cc1)C[C@H](O)C(=O)O)c1cc(O)no1` , its pKi was 7.00 to 7.90

// sample `O=C(NN(Cc1ccc(-c2cc(Cl)ccc2F)cc1)C[C@@H](O)C(=O)O)c1cc(-c2cnccn2)[nH]n1` , its pKi was ≥ 9.00

// sample `O=C(NN(Cc1ccc(-c2cc(Cl)ccc2F)cc1)C[C@@H](O)C(=O)O)c1cc(Cl)c2nn[nH]c2c1` , its pKi was ≥ 9.00

====

For each of the compounds below, state its pKi.
molecular target: human NEP (Homo sapiens); construct: 1182-ZN; assay: In vitro enzyme inhibition assay at human NEP (Assay 1); conditions: recombinant enzyme, fluorogenic peptide substrate, 37° C.
pKi: −log10 of the molar value.

// sample `O=C(NN(Cc1ccc(-c2cc(Cl)ccc2F)cc1)C[C@@H](O)C(=O)O)c1nn(-c2ccccc2Cl)c(=O)[nH]1` , its pKi was 8.00 to 8.90

// sample `O=C(NN(Cc1ccc(-c2cccc(Cl)c2)cc1)C[C@@H](O)C(=O)O)c1nc(Cl)n[nH]1` , its pKi was 8.00 to 8.90

// sample `O=C(NN(Cc1ccc(-c2cccc(Cl)c2)cc1)C[C@@H](O)C(=O)O)c1cnc(O)s1` , its pKi was 8.00 to 8.90

// sample `O=C(NN(Cc1ccc(-c2ccccc2)cc1)C[C@@H](O)C(=O)O)c1cnn[nH]1` , its pKi was 7.00 to 7.90

// sample `O=C(NN(Cc1ccc(-c2cc(Cl)ccc2O)cc1)C[C@H](O)C(=O)O)c1cc(O)no1` , its pKi was 8.00 to 8.90

// sample `O=C(NN(Cc1ccc(-c2cccc(Cl)c2)cc1)C[C@@H](O)C(=O)O)c1cc(C(=O)N2CCC2)n[nH]1` , its pKi was ≥ 9.00

// sample `CCCCc1cc(C(=O)NN(Cc2ccc(-c3cccc(Cl)c3)cc2)C[C@@H](O)C(=O)O)[nH]n1` , its pKi was ≥ 9.00

// sample `O=C(NN(Cc1ccc(-c2cccc(Cl)c2)cc1)C[C@@H](O)C(=O)O)c1cc(C2CC2)[nH]n1` , its pKi was 8.00 to 8.90

// sample `O=C(NN(Cc1ccc(-c2ccccc2)cc1)C[C@@H](O)C(=O)O)c1cc(C(=O)O)n(Cc2c(F)cc(Cl)cc2F)n1` , its pKi was 7.00 to 7.90

====

target: human NEP (Homo sapiens); construct: purchased R&D Systems, Minneapolis, Minn; 1182-ZN; experiment: In vitro enzyme inhibition assay at human NEP (Assay 1); assay type: biochemical; details: recombinant enzyme, fluorogenic peptide substrate, 37° C.
OBSERVABLE: Ki

// sample `O=C(NN(Cc1ccc(-c2cccc(Cl)c2)cc1F)C[C@@H](O)C(=O)O)c1nnn[nH]1` , its Ki was 1.26 to 10 nM

// sample `CCCCc1cc(C(=O)NN(Cc2ccc(-c3cc(Cl)ccc3F)cc2)C[C@@H](O)C(=O)O)nn1CC(=O)O` , its Ki was 1.26 to 10 nM

// sample `O=C(NN(Cc1ccc(-c2cc(Cl)ccc2F)cc1Cl)C[C@@H](O)C(=O)O)c1c[nH]nn1` , its Ki was ≤ 1 nM

// sample `O=C(NN(Cc1ccc(-c2ccccc2)cc1)C[C@H](O)C(=O)O)c1cc(F)c2[nH]nnc2c1` , its Ki was 126 to 1000 nM

// sample `COc1cc(C(=O)NN(Cc2ccc(-c3cc(Cl)ccc3F)cc2)C[C@@H](O)C(=O)O)on1` , its Ki was ≤ 1 nM

// sample `O=C(NN(Cc1ccc(-c2cc(Cl)ccc2F)cc1)C[C@@H](O)C(=O)O)c1cc(O)no1` , its Ki was ≤ 1 nM

// sample `O=C(NN(Cc1ccc(-c2cc(Cl)ccc2F)cc1)C[C@@H](O)C(=O)O)c1cnc(O)s1` , its Ki was ≤ 1 nM

// sample `COCc1cc(C(=O)NN(Cc2ccc(-c3cccc(Cl)c3)cc2)C[C@@H](O)C(=O)O)[nH]n1` , its Ki was 1.26 to 10 nM

// sample `O=C(NN(Cc1ccc(-c2cccc(Cl)c2)c(Cl)c1)C[C@@H](O)C(=O)O)c1cc(O)no1` , its Ki was ≤ 1 nM

// sample `Cc1cccc(-c2ccc(CN(C[C@H](O)C(=O)O)NC(=O)c3cc(O)no3)cc2)c1` , its Ki was ≤ 1 nM

// sample `O=C(NN(Cc1ccc(-c2cc(Cl)ccc2F)cc1)C[C@@H](O)C(=O)O)c1cc(-c2ccccc2O)n[nH]1` , its Ki was ≤ 1 nM

// sample `Cc1cc(C(=O)NN(Cc2ccc(-c3cc(Cl)ccc3F)cc2)C[C@@H](O)C(=O)O)cc2[nH]nnc12` , its Ki was 1.26 to 10 nM

// sample `O=C(NN(Cc1ccc(-c2cccc(Cl)c2)cc1)C[C@@H](O)C(=O)O)c1cc(C(=O)N2CCCC2)n[nH]1` , its Ki was ≤ 1 nM

// sample `O=C(NN(Cc1ccc(-c2ccccc2)cc1)C[C@@H](O)C(=O)O)c1cc(O)no1` , its Ki was 1.26 to 10 nM

// sample `COCCN(C)C(=O)c1cc(C(=O)NN(Cc2ccc(-c3ccccc3)cc2)C[C@@H](O)C(=O)O)[nH]n1` , its Ki was 12.6 to 100 nM

// sample `O=C(NN(Cc1ccc(-c2cccc(Cl)c2)cc1)C[C@H](O)C(=O)O)c1cc(O)no1` , its Ki was ≤ 1 nM

// sample `O=C(NN(Cc1ccc(-c2ccccc2)cc1)C[C@@H](O)C(=O)O)c1cc(C(=O)N2CCC2)n[nH]1` , its Ki was 1.26 to 10 nM

// sample `O=C(NN(Cc1ccc(-c2cccc(Cl)c2)cc1)C[C@@H](O)C(=O)O)c1cc(O)nc(O)n1` , its Ki was 12.6 to 100 nM

// sample `O=C(NN(Cc1ccc(-c2cccc(Cl)c2)cc1Cl)C[C@@H](O)C(=O)O)c1c[nH]nn1` , its Ki was ≤ 1 nM
